Reference source for all entries: the supplement of paper PMC7877785

Assay: self-splicing fitness, log relative to wild type (ln ratio); higher = more splicing; Tetrahymena group I intron in knt gene, E. coli kanamycin selection, DiMSum; sequences stand for … in CUCUCU…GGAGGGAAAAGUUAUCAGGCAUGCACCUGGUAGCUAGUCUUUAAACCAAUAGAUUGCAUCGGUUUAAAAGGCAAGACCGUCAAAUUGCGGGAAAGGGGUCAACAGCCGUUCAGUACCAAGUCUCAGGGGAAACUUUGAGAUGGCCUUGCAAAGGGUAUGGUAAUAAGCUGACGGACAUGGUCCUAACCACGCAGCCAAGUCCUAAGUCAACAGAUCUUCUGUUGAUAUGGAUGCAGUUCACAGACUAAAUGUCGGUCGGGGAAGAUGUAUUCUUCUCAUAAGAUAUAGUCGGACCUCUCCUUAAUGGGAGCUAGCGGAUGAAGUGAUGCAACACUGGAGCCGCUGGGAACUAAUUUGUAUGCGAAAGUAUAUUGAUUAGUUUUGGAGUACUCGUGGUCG;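 further: selection with 25 µg/mL kanamycin versus none on LB agar overnight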
Details: 30 °C
self-splicing fitness (ln) values for the sequences below.
Please reply with the number alone, leaving off any unit.

            biosequence  value
0  UACGAGCAAUAUUACGACUC  -2.51
1  CGCUAGCAAUAUUACGGUUC  -2.13
2  UCCCAGCAAUAUUACGCCAA   -2.7
3  CACUAGCAAUAUUACGCGAA  -2.72
4  AGCAAGCAAUAUUACGAGCU  -3.42

[in] For the sequence "CCCUAGCAAUAUUACGGAUG" , give its measured self-splicing fitness (ln) value.
[out] -3.17

[in] For the sequence "UUCGAGCAAUAUUACGGGGG" , give its measured self-splicing fitness (ln) value.
[out] -2.88

[in] For the sequence "AAACAGCAAUAUUACGCUAC" , give its measured self-splicing fitness (ln) value.
[out] -3.84

[in] For the sequence "UCUGAGCAAUAUUACGACCG" , give its measured self-splicing fitness (ln) value.
[out] -2.92

[in] For the sequence "AUCAAGCAAUAUUACGACCG" , give its measured self-splicing fitness (ln) value.
[out] -1.33

[in] For the sequence "UUCGAGCAAUAUUACGUAAA" , give its measured self-splicing fitness (ln) value.
[out] -2.48

[in] For the sequence "GCAAAGCAAUAUUACGUAAG" , give its measured self-splicing fitness (ln) value.
[out] -1.92

[in] For the sequence "AGUAAGCAAUAUUACGUAAG" , give its measured self-splicing fitness (ln) value.
[out] -1.35

[in] For the sequence "CUUAAGCAAUAUUACGCGCU" , give its measured self-splicing fitness (ln) value.
[out] -3.35

[in] For the sequence "CGUCAGCAAUAUUACGUUUC" , give its measured self-splicing fitness (ln) value.
[out] -3

[in] For the sequence "UUCCAGCAAUAUUACGGUGA" , give its measured self-splicing fitness (ln) value.
[out] -0.226

[in] For the sequence "CCAAAGCAAUAUUACGAGCC" , give its measured self-splicing fitness (ln) value.
[out] -3.2

[in] For the sequence "CCCCAGCAAUAUUACGCUCG" , give its measured self-splicing fitness (ln) value.
[out] -3.14

[in] For the sequence "GGUGAGCAAUAUUACGAUGU" , give its measured self-splicing fitness (ln) value.
[out] -2.19

[in] For the sequence "UCAUAGCAAUAUUACGUAGA" , give its measured self-splicing fitness (ln) value.
[out] -1.88

[in] For the sequence "UACAAGCAAUAUUACGAGCC" , give its measured self-splicing fitness (ln) value.
[out] -2.24

[in] For the sequence "GUAUAGCAAUAUUACGGUUU" , give its measured self-splicing fitness (ln) value.
[out] -0.844

* * *

Assay: self-splicing fitness, log relative to wild type (ln ratio); higher = more splicing; Tetrahymena group I intron in knt gene, E. coli kanamycin selection, DiMSum; sequences stand for … in CUCUCU…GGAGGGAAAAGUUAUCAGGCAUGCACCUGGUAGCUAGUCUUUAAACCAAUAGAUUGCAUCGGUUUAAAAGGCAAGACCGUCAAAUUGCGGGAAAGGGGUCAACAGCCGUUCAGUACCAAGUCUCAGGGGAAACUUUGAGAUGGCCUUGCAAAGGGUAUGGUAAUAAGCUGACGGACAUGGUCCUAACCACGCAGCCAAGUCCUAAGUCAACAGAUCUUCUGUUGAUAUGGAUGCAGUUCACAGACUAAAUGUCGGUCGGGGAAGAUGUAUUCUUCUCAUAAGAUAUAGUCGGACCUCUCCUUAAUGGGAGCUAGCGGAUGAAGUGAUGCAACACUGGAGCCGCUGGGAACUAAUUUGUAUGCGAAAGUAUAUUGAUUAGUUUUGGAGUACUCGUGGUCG
Conditions: 37 °C
Kind request: treat -0.9 as inclusive, so self-splicing fitness (ln) at -0.9 or higher is met, anything lower is not met.

Look over these answered cases.
>>> df
            biosequence  answer_label
0  ACAAAGCAAUAUUACGAAGC           met
1  UAGGAGCAAUAUUACGAUCA           met
2  ACACAGCAAUAUUACGCAUU       not met
3  AUUGAGCAAUAUUACGGGGC       not met
4  UAUGAGCAAUAUUACGCUGC       not met
5  GCCCAGCAAUAUUACGGCCA           met
6  CGUAAGCAAUAUUACGUUCU           met
7  UUGCAGCAAUAUUACGGUUA           met

[in] Entry "GCUUAGCAAUAUUACGACAC" : is its self-splicing fitness (ln) no less than -0.9?
[out] met

[in] Entry "ACACAGCAAUAUUACGCCCU" : is its self-splicing fitness (ln) no less than -0.9?
[out] met

[in] Entry "CGAUAGCAAUAUUACGUAAU" : is its self-splicing fitness (ln) no less than -0.9?
[out] not met

[in] Entry "CUUCAGCAAUAUUACGAGAA" : is its self-splicing fitness (ln) no less than -0.9?
[out] met

[in] Entry "UCGCAGCAAUAUUACGCCUU" : is its self-splicing fitness (ln) no less than -0.9?
[out] met

[in] Entry "UCUUAGCAAUAUUACGGGAA" : is its self-splicing fitness (ln) no less than -0.9?
[out] met

[in] Entry "CGUCAGCAAUAUUACGAAGU" : is its self-splicing fitness (ln) no less than -0.9?
[out] not met

[in] Entry "CAAGAGCAAUAUUACGCGCA" : is its self-splicing fitness (ln) no less than -0.9?
[out] not met

[in] Entry "UUAAAGCAAUAUUACGCUCG" : is its self-splicing fitness (ln) no less than -0.9?
[out] met

[in] Entry "GCUCAGCAAUAUUACGAGGC" : is its self-splicing fitness (ln) no less than -0.9?
[out] not met

[in] Entry "GGGAAGCAAUAUUACGUCGC" : is its self-splicing fitness (ln) no less than -0.9?
[out] met

[in] Entry "AAUCAGCAAUAUUACGGACA" : is its self-splicing fitness (ln) no less than -0.9?
[out] met

[in] Entry "GCCCAGCAAUAUUACGGAGC" : is its self-splicing fitness (ln) no less than -0.9?
[out] not met

[in] Entry "AGCAAGCAAUAUUACGACGU" : is its self-splicing fitness (ln) no less than -0.9?
[out] met

[in] Entry "GCACAGCAAUAUUACGAUCC" : is its self-splicing fitness (ln) no less than -0.9?
[out] met

[in] Entry "UACCAGCAAUAUUACGGUAC" : is its self-splicing fitness (ln) no less than -0.9?
[out] not met

[in] Entry "GCUCAGCAAUAUUACGCGUU" : is its self-splicing fitness (ln) no less than -0.9?
[out] met

[in] Entry "ACCGAGCAAUAUUACGGAGU" : is its self-splicing fitness (ln) no less than -0.9?
[out] not met

[in] Entry "GAUGAGCAAUAUUACGUGAC" : is its self-splicing fitness (ln) no less than -0.9?
[out] not met

* * *

Assay: self-splicing fitness, log relative to wild type (ln ratio); higher = more splicing; Tetrahymena group I intron in knt gene, E. coli kanamycin selection, DiMSum; sequences stand for … in CUCUCU…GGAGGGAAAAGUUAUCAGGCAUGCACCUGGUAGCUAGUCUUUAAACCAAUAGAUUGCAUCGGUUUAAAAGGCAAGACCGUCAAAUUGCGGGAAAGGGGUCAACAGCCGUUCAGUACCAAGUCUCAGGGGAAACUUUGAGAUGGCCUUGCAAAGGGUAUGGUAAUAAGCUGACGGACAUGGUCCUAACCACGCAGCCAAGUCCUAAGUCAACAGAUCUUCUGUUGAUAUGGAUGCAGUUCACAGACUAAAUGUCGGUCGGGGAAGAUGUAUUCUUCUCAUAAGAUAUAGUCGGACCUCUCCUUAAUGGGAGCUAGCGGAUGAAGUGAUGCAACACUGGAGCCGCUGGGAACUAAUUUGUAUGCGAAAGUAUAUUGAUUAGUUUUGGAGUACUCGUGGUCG
Conditions: 37 °C
test readout: self-splicing fitness (ln)
Please reply with the number alone, leaving off any unit.

[in] For the sequence "GCGCAGCAAUAUUACGCCGG" , give its measured self-splicing fitness (ln) value.
[out] -1.57

[in] For the sequence "UGGCAGCAAUAUUACGUGCC" , give its measured self-splicing fitness (ln) value.
[out] -1.69

[in] For the sequence "GUACAGCAAUAUUACGAAAU" , give its measured self-splicing fitness (ln) value.
[out] -0.906

[in] For the sequence "UCACAGCAAUAUUACGGUUG" , give its measured self-splicing fitness (ln) value.
[out] -0.981
